Recorded IC50 for the following compounds
- System: MV4-11
- run.description: cells
- experimental.conditions: Homo sapiens, MV4-11, 96 h
Return type: number; implicit unit nM.

Here are 3 compounds together with their reported answers.
compound	IC50, nM
O=S(=O)(c1ccccc1)c1ccc(N2CC(CN3CCC(C4(C5CCCC5)NCCc5ccccc54)CC3)C2)cc1 (centres undefined)	500
O=S(=O)(c1ccncc1)c1ccc(N2CC(CN3CCC(C4(C5CCCC5)CN(CC5CC5)Cc5ccccc54)CC3)C2)cc1 (centres undefined)	1370
CC(=O)O[C@@H]1CCC[C@H]1[C@](C#N)(c1ccccc1)C1CCN(CC2CN(c3ccc(C#N)cc3)C2)CC1 (relative stereo)	14300

Just so you know, measured IC50 for CCC(=O)O[C@H]1CCC[C@@H]1[C@](C#N)(c1ccccc1)C1CCN(CC2CN(c3ccc(C#N)cc3)C2)CC1 (mixture of isomers) came out at 2200
